Data provenance is patent US12447153B2.

Measured On: ErbB2 with Exon 20 YVMA insertion (HER2-YVMA) (Homo sapiens (Human), UniProt P04626, INS775YVMA)
Sequence (P04626 other isoform, or with tags, fused parts or gaps ins YVMA behind 775): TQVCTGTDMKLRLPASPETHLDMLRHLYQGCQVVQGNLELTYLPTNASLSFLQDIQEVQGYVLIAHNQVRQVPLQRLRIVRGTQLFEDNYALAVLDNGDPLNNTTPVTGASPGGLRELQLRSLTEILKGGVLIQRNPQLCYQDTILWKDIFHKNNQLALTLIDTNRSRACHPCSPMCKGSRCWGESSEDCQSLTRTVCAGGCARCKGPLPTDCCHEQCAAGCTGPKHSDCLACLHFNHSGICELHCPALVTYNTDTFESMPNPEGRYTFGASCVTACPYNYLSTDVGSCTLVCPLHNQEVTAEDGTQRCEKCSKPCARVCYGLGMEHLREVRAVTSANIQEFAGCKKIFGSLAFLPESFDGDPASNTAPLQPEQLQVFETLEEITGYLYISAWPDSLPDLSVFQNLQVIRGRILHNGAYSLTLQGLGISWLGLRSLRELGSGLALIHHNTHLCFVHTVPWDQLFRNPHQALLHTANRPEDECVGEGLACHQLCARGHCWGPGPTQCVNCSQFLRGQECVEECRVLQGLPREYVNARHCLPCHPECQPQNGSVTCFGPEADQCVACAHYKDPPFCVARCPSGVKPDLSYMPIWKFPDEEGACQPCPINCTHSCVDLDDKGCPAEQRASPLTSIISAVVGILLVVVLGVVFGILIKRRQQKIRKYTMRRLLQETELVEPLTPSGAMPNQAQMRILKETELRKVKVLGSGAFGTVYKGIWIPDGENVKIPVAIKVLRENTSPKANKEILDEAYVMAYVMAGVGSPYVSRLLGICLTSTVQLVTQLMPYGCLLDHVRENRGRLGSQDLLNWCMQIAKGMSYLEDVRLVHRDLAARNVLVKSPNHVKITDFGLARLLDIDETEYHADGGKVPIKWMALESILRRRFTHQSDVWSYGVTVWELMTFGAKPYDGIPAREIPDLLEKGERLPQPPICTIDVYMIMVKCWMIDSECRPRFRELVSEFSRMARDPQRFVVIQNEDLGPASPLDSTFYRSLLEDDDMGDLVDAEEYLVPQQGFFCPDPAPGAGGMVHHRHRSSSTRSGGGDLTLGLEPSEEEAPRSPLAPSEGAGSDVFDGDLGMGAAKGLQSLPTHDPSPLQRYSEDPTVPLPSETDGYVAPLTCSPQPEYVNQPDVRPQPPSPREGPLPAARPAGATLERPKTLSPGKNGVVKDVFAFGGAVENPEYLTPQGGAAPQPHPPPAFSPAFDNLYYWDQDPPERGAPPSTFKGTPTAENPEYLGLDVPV
Assay Text: Cellular Phosphorylation Assay, Assay 4 (constitutive ErbB2 phosphorylation, NIH 3T3 cells)
Format: cell-based
Protocol Conditions: ErbB2 YVMA phosphorylation
Experimental Endpoint: IC50 (nM)

Solved entries (count: 3):
1) C=CC(=O)N1CCN(c2ccc3ncnc(Nc4ccc(Oc5ccn6ncnc6c5)c(Cl)c4F)c3n2)C[C@H]1C(F)(F)F [Example 85] :: 25
2) C=CC(=O)N1CC[C@@H]2[C@H](c3ccc4ncnc(Nc5ccc(Oc6ccc7c(c6)ncn7C)c(C)c5F)c4n3)CC[C@@H]21 (racemic) [Example 142] :: 79.5
3) C=CC(=O)N1[C@@H]2CC[C@H]1[C@H](c1ccc3ncnc(Nc4ccc(Oc5ccn6ncnc6c5)c(C)c4F)c3n1)C2 (racemic) [Example 213] :: 23.9

(I) C=CC(=O)N1CC(c2ccc3ncnc(Nc4ccc(Oc5ccc6c(c5)ncn6C)c(C)c4F)c3n2)CC1C (centres unmarked) [Example 124]
(II) C=CC(=O)N1CCN(c2ccc3ncnc(Nc4ccc(Oc5cnc6c(c5)ncn6C)c(Cl)c4F)c3n2)CC1(C)C [Example 239]
(III) C=CC(=O)N1CCC(c2ccc3ncnc(Nc4ccc(Oc5ccc6c(c5)ncn6C)c(C)c4F)c3n2)CC1 [Example 146]
(IV) C=CC(=O)N1CCC[C@@H](c2ccc3ncnc(Nc4ccc(Oc5ccn6ncnc6c5)c(C)c4F)c3n2)CC1 (single isomer, unassigned) [Example 210]
Sort the 4 compounds by IC50; largest first, smallest last. Dear reader, please state the labels in the requested order. IV, III, II, I
(IV: 67.7 nM, III: 36.7 nM, II: 24.3 nM, I: 11.4 nM)

###

Measured On: UniProt:P04626
Assay Text: ErbB Enzyme Assay (HTRF KinEASE-TK), Assay 2
Type: biochemical
Protocol Conditions: ErbB2 WT enzyme assay
Method: The kinases were incubated with 250 nM TK-substrate biotin (CisBio, part of cat #62TKOPEC) at 1 mM ATP along with test compounds in a buffer consisting of 25 mM HEPES, pH 7.4, 10 mM MgCl2, 0.01% Triton X-100, and 2% DMSO in a volume of 8 μL. […] After 30-minute incubation at 22° C., the reaction was quenched by adding 8 μL of quench solution containing 62.5 nM Sa-XL665 and 0.25×TK-Ab-Cryptate in HTRF detection buffer (all from CisBio, part of cat #62TKOPEC).
pIC50: −log10 of the molar value.
Experimental Endpoint: pIC50

Solved entries (count: 4):
1) CC#CC(=O)N1C[C@@H]2CC[C@H]1CN2c1ccc2ncnc(Nc3ccc(Oc4ccn5ncnc5c4)c(C)c3F)c2n1 [Example 333] :: 6.81
2) C=CC(=O)N1CC[C@@H]2C[C@H]1CN2c1ccc2ncnc(Nc3ccc(Oc4cnc5c(c4)ncn5C)c(C)c3F)c2n1 :: 7.36
3) C=CC(=O)N1C[C@@H]2CN(c3ccc4ncnc(Nc5ccc(Oc6ccn7ncnc7c6)c(C)c5F)c4n3)C[C@@H]21 :: 7.33
4) C=CC(=O)N1CCN(c2ccc3ncnc(Nc4cc(C)c(Oc5cnc6c(c5)ncn6C)cc4F)c3n2)C[C@@H]1C1CC1 :: 6.80

(1) CC#CC(=O)N1CC[C@@H]2C[C@H]1CN2c1ccc2ncnc(Nc3cc(Cl)c(Oc4ccn5ncnc5c4)cc3F)c2n1
(2) C=CC(=O)N1CCC(c2ccc3ncnc(Nc4ccc(Oc5cnc6c(c5)ncn6C)c(Cl)c4)c3n2)CC1
(3) C=CC(=O)N1[C@H](C)CN(c2ccc3ncnc(Nc4ccc(Oc5ccn6ncnc6c5)c(Cl)c4F)c3n2)C[C@@H]1C
Put these in order: smallest pIC50 first, largest last. Dear reader, please state the labels in the requested order. 1, 2, 3

###

Measured On: BCRP (Homo sapiens (Human), UniProt Q9UNQ0)
Sequence (Q9UNQ0 whole entry): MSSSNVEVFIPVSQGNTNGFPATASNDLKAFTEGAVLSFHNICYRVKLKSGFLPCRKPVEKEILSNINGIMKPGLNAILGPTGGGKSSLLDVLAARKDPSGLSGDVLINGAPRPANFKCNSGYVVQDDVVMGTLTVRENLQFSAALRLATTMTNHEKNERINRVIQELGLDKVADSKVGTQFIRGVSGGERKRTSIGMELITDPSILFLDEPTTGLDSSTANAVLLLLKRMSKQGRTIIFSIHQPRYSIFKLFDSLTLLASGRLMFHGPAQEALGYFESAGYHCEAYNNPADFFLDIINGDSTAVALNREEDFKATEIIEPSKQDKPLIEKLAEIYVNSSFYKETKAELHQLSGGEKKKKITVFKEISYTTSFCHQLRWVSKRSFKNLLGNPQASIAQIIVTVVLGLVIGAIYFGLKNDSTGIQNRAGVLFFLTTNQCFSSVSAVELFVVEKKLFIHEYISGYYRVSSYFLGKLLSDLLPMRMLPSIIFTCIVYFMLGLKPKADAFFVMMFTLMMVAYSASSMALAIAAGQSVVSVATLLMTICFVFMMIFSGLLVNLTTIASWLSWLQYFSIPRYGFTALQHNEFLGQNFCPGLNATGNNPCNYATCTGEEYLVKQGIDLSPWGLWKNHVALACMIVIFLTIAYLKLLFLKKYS
Assay Text: BCRP MDCKII efflux assay (Assay 7)
Assay type: in vitro ADME
Protocol Conditions: dog; efflux ratio Papp(B-A)/Papp(A-B), BCRP MDCKII cells; read-out: Assay 7 Pe Ratio
Experimental Endpoint: efflux ratio at 2 h, 1 µM

1. C=CC(=O)N1C2CCC1CN(c1ccc3ncnc(Nc4cc(Cl)c(Oc5ccn6ncnc6c5)cc4F)c3n1)C2 :: 13.6

(A) C=CC(=O)N1CCC(c2ccc3ncnc(Nc4ccc(Oc5cnc6c(c5)ncn6C)c(C)c4)c3n2)CC1
(B) C=CC(=O)N1CCN(c2ccc3ncnc(Nc4ccc(Oc5ccn6ncnc6c5)c(C)c4F)c3n2)C[C@@H]1COC
(C) C=CC(=O)N1CCN(c2ccc3ncnc(Nc4ccc(Oc5cnc6c(c5)ncn6C)c(C)c4F)c3n2)C[C@H]1C1CC1
Sort the 3 compounds by efflux ratio at 2 h, 1 µM; largest first, smallest last. Dear reader, please state the labels in the requested order. A, B, C
(A: 15.3, B: 7.4, C: 1.6)

(I) C=CC(=O)N1CCN(c2ccc3ncnc(Nc4cc(C)c(Oc5cnc6c(c5)ncn6C)cc4F)c3n2)CC12CC2
(II) C=CC(=O)N1CCN(c2ccc3ncnc(Nc4ccc(Oc5ccn6ncnc6c5)c(C)c4F)c3n2)CC1
Higher efflux ratio at 2 h, 1 µM between I and II ? Refer to your chosen item by its label in the answer. I
(I: 13.4, II: 6.1)

###

Measured On: EGFR (Homo sapiens (Human), UniProt P00533)
Sequence (P00533 25-1210): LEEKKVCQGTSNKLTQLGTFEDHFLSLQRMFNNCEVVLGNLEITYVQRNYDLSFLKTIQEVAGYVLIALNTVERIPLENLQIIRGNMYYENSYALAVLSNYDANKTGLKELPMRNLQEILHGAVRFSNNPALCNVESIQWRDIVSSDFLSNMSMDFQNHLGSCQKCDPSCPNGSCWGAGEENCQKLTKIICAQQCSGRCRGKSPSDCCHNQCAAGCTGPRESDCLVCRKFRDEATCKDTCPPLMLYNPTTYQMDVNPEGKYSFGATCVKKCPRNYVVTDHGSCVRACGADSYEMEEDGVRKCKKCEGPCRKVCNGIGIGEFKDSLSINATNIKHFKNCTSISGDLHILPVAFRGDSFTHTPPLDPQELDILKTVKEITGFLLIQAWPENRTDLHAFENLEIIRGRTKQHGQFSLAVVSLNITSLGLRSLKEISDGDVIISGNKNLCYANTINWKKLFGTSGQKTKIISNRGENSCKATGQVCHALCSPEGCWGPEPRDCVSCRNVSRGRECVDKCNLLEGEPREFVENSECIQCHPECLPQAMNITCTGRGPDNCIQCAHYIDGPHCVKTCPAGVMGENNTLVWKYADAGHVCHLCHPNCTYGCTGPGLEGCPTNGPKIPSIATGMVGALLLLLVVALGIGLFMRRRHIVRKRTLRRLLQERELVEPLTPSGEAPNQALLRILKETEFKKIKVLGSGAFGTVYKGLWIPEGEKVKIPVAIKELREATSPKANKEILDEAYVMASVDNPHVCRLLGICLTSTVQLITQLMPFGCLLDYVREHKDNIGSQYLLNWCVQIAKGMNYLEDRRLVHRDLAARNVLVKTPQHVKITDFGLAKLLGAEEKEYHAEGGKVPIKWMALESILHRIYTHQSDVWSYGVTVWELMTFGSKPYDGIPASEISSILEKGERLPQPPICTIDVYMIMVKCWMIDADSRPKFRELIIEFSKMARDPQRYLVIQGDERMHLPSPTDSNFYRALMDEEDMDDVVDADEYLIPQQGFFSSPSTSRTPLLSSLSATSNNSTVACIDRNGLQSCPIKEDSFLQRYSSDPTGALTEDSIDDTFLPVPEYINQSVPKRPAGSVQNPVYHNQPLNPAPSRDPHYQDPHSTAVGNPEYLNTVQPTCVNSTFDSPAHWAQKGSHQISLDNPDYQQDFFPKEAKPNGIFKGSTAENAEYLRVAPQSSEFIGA
Assay Text: ErbB Enzyme Assay (HTRF KinEASE-TK), Assay 3
Format: biochemical
Protocol Conditions: EGFR enzyme assay
pIC50: −log10 of the molar value.
Experimental Endpoint: pIC50

Solved entries (count: 2):
1) C=CC(=O)N1[C@@H]2CCC[C@H]1[C@@H](c1ccc3ncnc(Nc4cc(C)c(Oc5ccn6ncnc6c5)cc4F)c3n1)C2 :: 6.06
2) C=CC(=O)N1C[C@@H]2CC(c3ccc4ncnc(Nc5ccc(Oc6ccn7ncnc7c6)c(C)c5F)c4n3)C[C@H]1C2 (stereo partly drawn) :: 5.32

(a) C=CC(=O)N1C[C@@H]2C[C@H]1C[C@H]2c1ccc2ncnc(Nc3cc(C)c(Oc4ccc5c(c4)ncn5C)cc3F)c2n1
(b) C=CC(=O)N1C[C@H]2C[C@@H]1[C@H](c1ccc3ncnc(Nc4ccc(Oc5ccn6ncnc6c5)c(C)c4)c3n1)C2
(c) C=CC(=O)N1C[C@@H](c2ccc3ncnc(Nc4cc(C)c(Oc5ccn6ncnc6c5)cc4F)c3n2)C[C@@H]1C (mixture of isomers)
Sort the 3 compounds by pIC50; largest first, smallest last. Dear reader, please state the labels in the requested order. a, b, c
(a: 5.99, b: 5.79, c: 5.52)

###

Measured On: ErbB2 with Exon 20 YVMA insertion (HER2-YVMA) (Homo sapiens (Human), UniProt P04626, INS775YVMA)
Assay Text: Cellular Phosphorylation Assay, Assay 4 (constitutive ErbB2 phosphorylation, NIH 3T3 cells)
Assay type: cell-based
Protocol Conditions: ErbB2 YVMA phosphorylation
pIC50: −log10 of the molar value.
Experimental Endpoint: pIC50

Solved entries (count: 3):
1) C=CC(=O)N1CC2CCC(C1)N2c1ccc2ncnc(Nc3ccc(Oc4cnc5c(c4)ncn5C)c(C)c3F)c2n1 :: 7.78
2) C=CC(=O)N1C[C@@H](c2ccc3ncnc(Nc4ccc(Oc5ccc6c(c5)ncn6C)c(C)c4F)c3n2)C[C@@H]1C :: 7.82
3) C=CC(=O)N1C[C@H]2C[C@@H]1[C@H](c1ccc3ncnc(Nc4ccc(Oc5ccc6c(c5)ncn6C)c(C)c4F)c3n1)C2 (racemic) :: 7.69

(I) C=CC(=O)N1C[C@H]2C[C@@H]1CN(c1ccc3ncnc(Nc4ccc(Oc5ccc6c(c5)ncn6C)c(C)c4F)c3n1)C2
(II) C=CC(=O)N1CCC(c2ccc3ncnc(Nc4ccc(Oc5ccc6c(c5)ncn6C)c(C)c4F)c3n2)CC1(C)C (centres unmarked)
(III) C=CC(=O)N1CC[C@@H]2C[C@@H](c3ccc4ncnc(Nc5cc(C)c(Oc6ccn7ncnc7c6)cc5F)c4n3)C[C@@H]21 (single isomer, unassigned)
Put these in order: smallest pIC50 first, largest last. Dear reader, please state the labels in the requested order. III, II, I
(III: 7.04, II: 7.49, I: 8.00)

(1) C=CC(=O)N1C[C@@H]2C[C@H]1CN2c1ccc2ncnc(Nc3ccc(Oc4ccc5c(c4)ncn5C)c(C)c3F)c2n1
(2) C=CC(=O)N1CCC(Sc2ccc3ncnc(Nc4cc(C)c(Oc5ccc6c(c5)ncn6C)cc4F)c3n2)CC1
Identify the entry with the smaller pIC50: 1 or 2 . Refer to your chosen item by its label in the answer. 2
(2: 7.48, 1: 8.11)

(I) C=CC(=O)N1C[C@H]2C[C@H](c3ccc4ncnc(Nc5ccc(Oc6ccn7ncnc7c6)c(C)c5F)c4n3)C[C@H]2C1
(II) C=CC(=O)N1C[C@H]2C[C@H](c3ccc4ncnc(Nc5ccc(Oc6ccc7c(c6)ncn7C)c(C)c5F)c4n3)C[C@H]2C1
(III) C=CC(=O)N1CCC[C@@H](c2ccc3ncnc(Nc4cc(C)c(Oc5ccc6c(c5)ncn6C)cc4F)c3n2)CC1 (racemic)
Put these in order: smallest pIC50 first, largest last. Dear reader, please state the labels in the requested order. I, III, II

(a) C=CC(=O)N1CCC(Sc2ccc3ncnc(Nc4ccc(Oc5ccc6c(c5)ncn6C)c(C)c4F)c3n2)CC1
(b) C=CC(=O)Nc1ccc2ncnc(Nc3ccc(Oc4ccc5c(c4)ncn5C)c(C)c3)c2n1
Higher pIC50 between a and b ? Refer to your chosen item by its label in the answer. a
(a: 7.58, b: 6.35)
